# Test: Cytotoxicity against mouse primary glial cells assessed as reduction in cell viability after 72 hrs by luminescence based ATPlite assay
# Assay type: toxicity
# Condition info: read-out: LC50
Reported metric: CC50 at 72 h (µM)
Numbers only, in µM.

> print(dat)
                        structure.as.smiles  numeric.readout
1  CCCc1nn(C)c2c(=O)[nH]c(-c3cc(S(=O)(=O)NC4CCN(c5ncc(C(=O)NO)cn5)CC4)ccc3OCC)nc12             4.95
2  CCCc1nn(C)c2c(=O)[nH]c(-c3cc(S(=O)(=O)Nc4ccc(/C=C/C(=O)NO)cc4)ccc3OCC)nc12             30.3
3  CN1CC(=O)N2[C@H](c3ccc4c(c3)OCO4)c3[nH]c4ccccc4c3C[C@@H]2C1=O              110

Report CC50 at 72 h for every entry below.
1. O=C(CCCCCCC(=O)Nc1ccccc1)NO
2. CCCc1nn(C)c2c(=O)[nH]c(-c3cc(S(=O)(=O)N4CCN(c5ncc(C(=O)NO)cn5)CC4)ccc3OCC)nc12

A:
4.91
2.15

Data provenance is ChEMBL document CHEMBL3860059.
